# Target under test: MERS RBD-hFc (MERS-CoV (isolate EMC/2012))
# Assay comment: SPR Biacore, captured mAb, 25 C
Readout kind: koff (s⁻¹)
State the answer as a number, implicitly in s⁻¹.

Here are 5 binders together with their reported answers.
H2aM15287N (antibody, V domains shown) VH: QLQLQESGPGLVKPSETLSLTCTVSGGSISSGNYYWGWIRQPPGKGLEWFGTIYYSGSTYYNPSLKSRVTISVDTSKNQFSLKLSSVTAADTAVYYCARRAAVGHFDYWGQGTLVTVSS VL: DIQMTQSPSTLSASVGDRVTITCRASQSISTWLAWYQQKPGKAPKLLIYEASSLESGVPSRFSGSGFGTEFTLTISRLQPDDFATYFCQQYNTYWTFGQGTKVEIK	0.000442
H1M15289N (antibody, V domains shown) VH: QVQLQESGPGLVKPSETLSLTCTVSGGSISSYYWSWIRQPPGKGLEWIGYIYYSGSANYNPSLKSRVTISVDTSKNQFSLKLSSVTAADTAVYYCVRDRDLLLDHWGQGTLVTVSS VL: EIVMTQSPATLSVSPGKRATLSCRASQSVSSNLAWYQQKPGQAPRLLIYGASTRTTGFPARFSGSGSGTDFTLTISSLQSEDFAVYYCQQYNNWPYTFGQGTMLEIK	4.41e-05
H1H15188P (antibody, V domains shown) VH: QVQLVQSGAEVKKPGSSVKVSCKASGGSFSVYAISWVRQAPGQGLEWMGGIIPIFGTANYAQKFQDRFTITTDESTSTAYMELSSLRSEDTAMYYCAREGDIVVLPAGKGGMDVWGQGTTVTVSS VL: DIVMTQSPLSLPVTPGEPASISCRSSQSLLHGNGYNYLDWYLQKPGQSPQLLIYLVSHRASGVPDRFSGSGSGTDFTLKISRVEAEDVGVYYCMQALQSPWTFGQGTKVEIK	0.000122
H2aM15278N (antibody, V domains shown) VH: QVQLVQSGAEVKKPGASVKVSCKASGYTFTSHGISWVRQAPGQGFEWMGWIGTYNSNTDYAQNFQGRVTMTTDTSTSTAYMELRNLRSDDTAVYYCARERGPYYGMDVWGQGTTVTVSS VL: EIVLAQSPGTLSLSPGERATLSCRASQSVNSNYLAWYQQKPGQAPRLLIYGASSRATGIPDRFSGSGSGTDFTLTISRLEPEDFAVYYCQQYGNSLTFGPGTKVDFK	0.000873
H2aM15279N (antibody, V domains shown) VH: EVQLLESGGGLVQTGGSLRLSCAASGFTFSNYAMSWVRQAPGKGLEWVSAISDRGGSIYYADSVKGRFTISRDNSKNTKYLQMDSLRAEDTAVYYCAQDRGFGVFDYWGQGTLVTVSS VL: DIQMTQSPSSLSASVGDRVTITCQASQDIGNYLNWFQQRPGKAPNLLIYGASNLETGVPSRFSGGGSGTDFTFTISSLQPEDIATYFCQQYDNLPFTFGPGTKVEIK	8.91e-05

Ask: Given the entry H2aM15270N (antibody, V domains shown) VH: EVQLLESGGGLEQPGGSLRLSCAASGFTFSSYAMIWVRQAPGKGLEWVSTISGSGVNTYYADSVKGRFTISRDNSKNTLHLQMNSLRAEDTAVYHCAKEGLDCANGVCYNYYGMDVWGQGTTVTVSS VL: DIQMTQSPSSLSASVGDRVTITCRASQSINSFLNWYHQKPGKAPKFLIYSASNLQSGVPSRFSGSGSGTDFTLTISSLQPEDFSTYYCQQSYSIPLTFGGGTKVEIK , report its measured koff.
Result: 0.000605

Ask: Next: H2bM15292N (antibody, V domains shown) VH: QVQLVQSGAEVKKPGSSVKVSCKASGGTFNNYAISWVRQAPGQGLEWMGGIIPFFGTTNYAQKFQDRVTITSDDSTITAYMELSRLRSEDTAVYYCARDEPRRDGYNYYHYYYMDVWGQGTTVTVSS VL: DIQMTQSPSSLSASVGDRVTITCRASQSINSYLNWYQQKPGKAPNLLIYAASSLQSGVPSRFSGSGSGTDFTLTISSLHPEDFATYYCQQSYSTPPITFGQGTRLEIK
Result: 0.000155

Ask: Next: H1H15208P (antibody, V domains shown) VH: EVQLVESGGDLVQPGGSLRLSCTASGFTFSNYEMNWVRQAPEKGLDWVSFISSSGGAIYYADSVKGRFTISRDNAKNSLYLQMNSLRAEDSAIYFCARSDSGGNSRYWGQGTLVTVSS VL: DIQMTQSPSSVSASVGDRVTVTCRASQDISNWLVWYQQKPGKAPKFLIYAASSLQSGVPSRFSGSGSGTDFTLTISSLQPEDFATYYCQQANSFPPTFGGGTKVEIK
Result: 0.000243
